All figures here come from patent US9062078B2.

Measured log10(Ki) values are reported for all entries that follow.
target: UniProtKB O43614; test: Human orexin 2 receptor radioligand binding (competitive, [3H]-EMPA, HEK293 cell preparations); settings: human orexin 2 receptor, [3H]-EMPA competition binding; read-out: hOX2 Ki (nm)
Sequence (O43614 whole entry): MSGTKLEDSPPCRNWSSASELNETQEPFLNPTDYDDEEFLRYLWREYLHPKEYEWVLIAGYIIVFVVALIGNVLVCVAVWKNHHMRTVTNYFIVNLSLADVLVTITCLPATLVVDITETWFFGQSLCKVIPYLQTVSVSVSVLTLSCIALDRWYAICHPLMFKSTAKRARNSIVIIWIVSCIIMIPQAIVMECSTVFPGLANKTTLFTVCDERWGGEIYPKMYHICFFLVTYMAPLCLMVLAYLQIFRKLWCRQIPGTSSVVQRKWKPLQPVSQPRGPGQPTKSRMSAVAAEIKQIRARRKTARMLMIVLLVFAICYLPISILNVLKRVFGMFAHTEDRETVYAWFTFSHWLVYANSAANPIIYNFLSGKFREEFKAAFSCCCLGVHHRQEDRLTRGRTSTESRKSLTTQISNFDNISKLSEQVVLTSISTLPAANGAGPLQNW
Form field - Quantity: Ki; Unit: µM; Scale: log10

Request: Dear colleague, please send me the reported log10(Ki) for O=C(c1cncc2ccccc12)N1[C@@H]2CC[C@H]1[C@H](Nc1cnc(C(F)(F)F)cn1)C2 [Example 240] when you can.
Response: 0.32

Request: Dear colleague, please send me the reported log10(Ki) for Cc1noc(-c2c(F)cccc2C(=O)N2[C@@H]3CC[C@H]2[C@H](Nc2cnc(C(F)(F)F)cn2)C3)n1 [Example 254] when you can.
Response: -0.42

Request: Dear colleague, please send me the reported log10(Ki) for O=C(c1cccc(F)c1-n1nccn1)N1[C@@H]2CC[C@H]1[C@H](Nc1ncc(C(F)(F)F)cn1)C2 [Example 269] when you can.
Response: 0.23

Request: Dear colleague, please send me the reported log10(Ki) for Cc1ccc(-n2cccn2)c(C(=O)N2C3CCC2C(COc2ccc(F)cn2)C3)n1 (racemic) [Example 70] when you can.
Response: -0.20

Request: Dear colleague, please send me the reported log10(Ki) for O=C(c1cccc(F)c1-n1nccn1)N1[C@@H]2CC[C@H]1[C@H](Nc1ccc(C(F)(F)F)cn1)C2 [Example 294] when you can.
Response: 0.08

Request: Dear colleague, please send me the reported log10(Ki) for Cc1ccnc(C(=O)N2C3CCC2C(COc2ccccn2)C3)c1-n1nccn1 (racemic) [Example 72] when you can.
Response: 0.38

Request: Dear colleague, please send me the reported log10(Ki) for O=C(c1ccc(OC(F)F)cc1-n1nccn1)N1[C@@H]2CC[C@H]1[C@H](Nc1cnc(C(F)(F)F)cn1)C2 [Example 253] when you can.
Response: 0.98

Request: Dear colleague, please send me the reported log10(Ki) for CCOc1ccccc1C(=O)N1C2CCC1C(COc1ccc(F)cn1)C2 (racemic) [Example 165] when you can.
Response: -0.26

Request: Dear colleague, please send me the reported log10(Ki) for Cc1ccc(-n2nccn2)c(C(=O)N2C3CCC2C(COc2ccc(F)cn2)C3)c1 (racemic) [Example 9] when you can.
Response: -1.24

Request: Dear colleague, please send me the reported log10(Ki) for O=C(c1cccc2ccccc12)N1C2CCC1C(COc1ccc(F)cn1)C2 (racemic) [Example 24] when you can.
Response: -0.79

We now examine a further compound.
Request: Dear colleague, please send me the reported log10(Ki) for Cc1ccc(-n2nccn2)c(C(=O)N2C3CCC2C(COc2ccc(Br)cn2)C3)n1 (racemic) [Example 49] when you can.
Response: -0.72

---

target: human orexin 1 receptor (Homo sapiens (Human)); test: Human orexin 1 receptor radioligand binding (competitive, [3H]-SB674042, CHO cell preparations); details: human orexin 1 receptor, [3H]-SB674042 competition binding; read-out: hOX1 Ki (nm)
Sequence (O43613 whole entry): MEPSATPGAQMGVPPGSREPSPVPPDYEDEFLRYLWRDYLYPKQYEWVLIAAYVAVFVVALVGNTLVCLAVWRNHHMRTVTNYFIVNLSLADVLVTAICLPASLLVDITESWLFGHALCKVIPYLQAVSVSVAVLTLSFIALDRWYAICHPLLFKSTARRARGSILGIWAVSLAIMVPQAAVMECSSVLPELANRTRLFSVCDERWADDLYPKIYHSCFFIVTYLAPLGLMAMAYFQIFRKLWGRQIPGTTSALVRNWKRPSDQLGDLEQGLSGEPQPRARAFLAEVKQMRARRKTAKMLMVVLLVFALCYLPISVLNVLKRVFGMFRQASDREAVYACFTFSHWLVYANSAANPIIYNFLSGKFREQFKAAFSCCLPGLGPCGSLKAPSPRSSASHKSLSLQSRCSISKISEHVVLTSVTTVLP
measuredProperty: pKi
Note on pKi: it is the negative log10 of concentration, concentration in mol/L.

Request: Dear colleague, please send me the reported pKi for Cc1ccc(-c2ncccn2)c(C(=O)N2C3CCC2C(COc2nc(C)cc(C)n2)C3)c1 (racemic) when you can.
Response: 7.10

***
Request: Dear colleague, please send me the reported pKi for Cc1ccc(C(=O)N2C3CCC2C(COc2ccccn2)C3)c(-n2nccn2)n1 (racemic) when you can.
Response: 5.24

Request: Dear colleague, please send me the reported pKi for Cc1ccc(-c2ncco2)c(C(=O)N2C3CCC2C(COc2ccccn2)C3)n1 (racemic) when you can.
Response: 7.14

Request: Dear colleague, please send me the reported pKi for O=C(c1cc(F)ccc1-n1nccn1)N1C2CCC1C(CNc1ccccn1)C2 (racemic) when you can.
Response: 5.05

Request: Dear colleague, please send me the reported pKi for O=C(c1ccccc1-n1nccn1)N1C2CCC1C(Nc1ncc(C(F)(F)F)cn1)C2 (racemic) when you can.
Response: 6.70

Request: Dear colleague, please send me the reported pKi for Cc1ccc(-n2cccn2)c(C(=O)N2C3CCC2C(COc2ccc(F)cn2)C3)n1 (racemic) when you can.
Response: 7.21
